System: MCF7 breast
Assay: NCI-60 one-dose screen, 48 h
Settings: 10 µM
This is part of a sample that, as a whole, favours compounds with a hit. Of some 83,000 tested, about 20% had one in any assay. Active and inactive are the calls of the source. The calls were made as follows: active = growth percent below 10; inactive = the rest.
Classes used: true (active), false (inactive)

[[record]]
compound = "Cc1nc2sccn2c1-c1csc(Nc2cccc(Cl)c2C)n1"
answer_label = "false"

[[record]]
compound = "N#CCC1CCCC1"
answer_label = "false"

[[record]]
compound = "Cn1c(N)c(N=Cc2ccccc2)c(=O)n(C)c1=O"
answer_label = "false"

[[record]]
compound = "C#CCNCCCN1C(=O)c2ccc3c4c(ccc(c24)C1=O)C(=O)N(CCCNCC#C)C3=O"
answer_label = "true"

[[record]]
compound = "O=C(c1ccc(Cl)cc1)c1no[n+]([O-])c1C(=O)c1ccc(Cl)cc1"
answer_label = "false"

[[record]]
compound = "O=[N+]([O-])c1ccc(-c2nc(-c3ccccc3)c(-c3ccccc3)n2-c2ccccc2)cc1"
answer_label = "false"

[[record]]
compound = "Cc1cc(C)c2c(Nc3ncnc4c3sc3nc(C)cc(C)c34)n[nH]c2n1"
answer_label = "false"

[[record]]
compound = "Cc1[nH]nc2c(=S)[nH]c(=O)[nH]c12"
answer_label = "false"

[[record]]
compound = "c1ccc(OCCC[P+](c2ccccc2)(c2ccccc2)c2ccccc2)cc1"
answer_label = "true"

[[record]]
compound = "CC(=O)c1ccc(NCn2nc(-c3ccc(Cl)cc3)oc2=S)cc1"
answer_label = "false"

[[record]]
compound = "CCC(O)c1ccc(Br)cc1NC(=O)c1cccc(Cl)c1 (stereo unspecified)"
answer_label = "false"

